- EXPERIMENTAL_TARGET: HLA-A*68:02
- METHOD: IEDB peptide-MHC binding, cellular MHC/competitive/fluorescence; bounds were set here for any values at or beyond the usual limits of such assays
- MEASUREMENT_PARAMETERS: source organism: SARS-CoV1
Output Fulfilled for records whose IC50 is lower than 9 µM, Not fulfilled for records at or above 9 µM.

   monomer_sequence  discrete_label
0        ALVFLILCFT   Not fulfilled
1        VMFNGVTFST   Not fulfilled
2         ALLADKFPV   Not fulfilled
3        NLAPHLLLIV       Fulfilled

====

- EXPERIMENTAL_TARGET: HLA-A*02:03
- METHOD: IEDB peptide-MHC binding, purified MHC/competitive/radioactivity; bounds were set here for any values at or beyond the usual limits of such assays
- MEASUREMENT_PARAMETERS: source organism: Vaccinia virus WR
# log10 of IC50 per record follows
TEST_READOUT: log10 of IC50 (log10 of the value in nM)

>>> print(df.to_string())
    monomer_sequence   test_readout  measured_value
 0         GLILFVLAL  log10 of IC50            2.66
 1        CLLTDTIESA  log10 of IC50            2.01
 2        NLETYTRPEI  log10 of IC50            3.18
 3        HVLLPFYETL  log10 of IC50            2.33
 4        FTKDGKLDDT  log10 of IC50            2.27
 5        LLPLTSLVIT  log10 of IC50            3.12
 6        ELWARISSSL  log10 of IC50            2.51
 7        SLDQTHIKTI  log10 of IC50            1.18
 8         IVYGRSNAI  log10 of IC50            1.20
 9        EVERLMELPV  log10 of IC50            3.16
10         AISYCRAFI  log10 of IC50            2.17
11         NASKTINAL  log10 of IC50            2.85
12        ATICLKNEGV  log10 of IC50            1.85
13         SIGFEARIV  log10 of IC50            2.76
14        RLLKNMKQCT  log10 of IC50            3.50
15         GLYIPGTSV  log10 of IC50            1.23
16        EMKYALINLV  log10 of IC50            2.45
17        RVSENTGMGM  log10 of IC50            1.95
18         NIKISLNEI  log10 of IC50            1.49
19        ALEQYGIENT  log10 of IC50            3.33
20         TLIQYRQQL  log10 of IC50            2.61
21         FIISTLNKI  log10 of IC50           -0.38
22        IIYSKAGNIL  log10 of IC50            2.04
23        MIIGEPIIVA  log10 of IC50            2.05
24        IISTDQDTML  log10 of IC50            3.26
25        KLFKRERDAI  log10 of IC50            2.08
26        IMETIDPVYI  log10 of IC50            2.38
27        SMSQELAELL  log10 of IC50            1.74
28        VTYNIKPVIV  log10 of IC50            2.06
29        ITPTIEDDKI  log10 of IC50            3.62
30         DVSLSAYII  log10 of IC50            2.88

====

- EXPERIMENTAL_TARGET: HLA-A*02:06
- METHOD: IEDB peptide-MHC binding, purified MHC/competitive/radioactivity; bounds were set here for any values at or beyond the usual limits of such assays
- MEASUREMENT_PARAMETERS: source organism: Vaccinia virus WR
Each entry belongs to exactly one class, chosen by where its IC50 falls: low (below 300 nM), intermediate (300 nM to below 1000 nM), high (1000 nM or more)

>>> print(df.to_string())
    monomer_sequence  discrete_label
 0        CALVSDCAST            high
 1         LLEQLIENI    intermediate
 2         YISRDELWA            high
 3         NVSGVPHSV             low
 4        PIIYSKAGNI    intermediate
 5        YLYNKYSFKL             low
 6         ILSCIFAFI             low
 7         STIANSNII            high
 8         NIFMTLVPV             low
 9         VTPEYIKDL            high
10        GVMYAFTTPL             low
11         FVSTMPVET            high
12        NIISYIILFI             low
13         GAAITLVVI            high
14         SMYVIPDEL            high
15         TINVNSLAL            high
16         NLDDVYSYI             low
17        RIVVALSSLV             low
18        TTPLISFFGL            high
19         QIMECSRML    intermediate
20        NQLDSSNKSM    intermediate
21        VLTSVDIETA            high

====

- EXPERIMENTAL_TARGET: HLA-A*02:01
- METHOD: IEDB peptide-MHC binding, cellular MHC/competitive/fluorescence; bounds were set here for any values at or beyond the usual limits of such assays
- MEASUREMENT_PARAMETERS: source organism: Vaccinia virus WR
pIC50: −log10 of the molar value.
# pIC50 per record follows
TEST_READOUT: pIC50

>>> print(df.to_string())
    monomer_sequence  qualifier_operator  measured_value
 0         DAYNIADAA                   ≤            4.15
 1        LVITKLREHM                   ≤            4.15
 2        ILSEKRKDTI                   ≤            4.15
 3        LQKVLHVTDT                   ≤            4.15
 4        ITPDVIINST                   ≤            4.15
 5        VLKAMHDKKI                   ≤            4.15
 6        EQYTCNKPYT                   ≤            4.15
 7        PTRTWKVLSI                   ≤            4.15
 8         STNGKIVMT                   ≤            4.15
 9        NIKPVIVPDI                   ≤            4.15
10         DILANRDST                   ≤            4.15
11         STSITVNEV                   =            4.90
12         HLRDQSIKI                   =            5.14
13         DMLNIMNKL                   =            5.29
14        KTKYYKFDYI                   =            4.29
15         AAKTPVIVV                   =            5.03
16         DACKKILSA                   =            4.84
17         TTDNKITSI                   =            4.94
18        KINEMVDELV                   =            4.58
19         IIRYPVKRI                   =            5.00
20        PVDLVKSSFV                   =            4.41
21        TLPSIFLIIT                   =            5.01
22        FVFYKPKHST                   ≤            4.15
23         YVSSSYKDI                   =            4.51
24        NQGNILMDSI                   =            5.01
25        RVETSPRPTA                   =            4.44
26         TIKISPGIA                   =            4.43
27        TIENALVASL                   =            4.84
28        PIYYVQKQLV                   =            4.73
29        SVDIETAIRA                   =            5.29
30         EINATDIII                   =            4.77
31        VIVPDIKLDA                   =            4.65
32        STVASAQIHL                   =            4.85
33        EVFNREYNNV                   =            4.88
34         EAKTHFSTT                   =            4.56
35        VTTNNLLEQL                   =            4.67
36         ETLFGSYIT                   =            4.81
37         DTDIVNNFI                   =            4.58
38         KQTFGSLPA                   =            4.72
39         LTGNNTITT                   =            4.95
40        NLERETGLSA                   =            4.76
41         EVLMSPCRM                   =            4.55
42         KTVKNVDII                   =            5.06
43         DIRTLLPIL                   =            4.42
44        DTFVSSVREV                   =            5.29
45        GIVLSNTSTA                   =            4.88
46        QIYLSDSDNI                   =            4.60
47        GINQEDGIII                   ≤            4.15
48         RINDDSKSI                   =            4.87
49        SINVDSTDEL                   =            4.22
50         LTFLSGGDL                   =            4.72
51        SIAMLKSKNI                   =            4.85
52        GANGSTAEQL                   =            4.17
53         STILNSIDI                   =            5.13
54         GIVLSNTST                   =            4.70
55         DLVKSYSLI                   ≤            4.15
56         ETSFIFIET                   =            5.05
57         MVEYLENQL                   =            4.92
58        NITTLLNETA                   =            5.25
